- Test system: HT29 colon
- Experiment: NCI-60 one-dose screen, 48 h (100 = growth as untreated, 0 = no growth, -100 = all killed)
- Measurement Context: 10 µM unless noted
This is part of a sample that, as a whole, favours compounds with a hit. Of some 83,000 tested, about 20% had one in any assay.
Metric: growth (%)
Express your answer in %, writing the number without its unit.

Some solved entries appear below for comparison.
Brc1ccc(Nc2nc3ccccc3nc2Nc2ccc(Br)cc2)cc1 | -46.1
COc1ccc(-c2nsc3c2NC(=O)CC3c2cccc(OC)c2)cc1 (stereo unspecified) | 8.58
O=C(Nc1ccc(Br)cc1F)c1cc(F)ccc1O | 18
COc1cc(C#N)cc2[nH]c(=O)oc12 | 106
CCCCCCCCCCOC(=O)c1ccccc1C(=O)OCCCC | 105
COc1cc2nc(NC3CCC3)nc(NC3CCN(C(C)C)CC3)c2cc1OC | 14.5
CCCc1c(C)c2sc(=O)[nH]c2[nH]c1=O | 110
Cc1c(-c2noc(-c3ccc([N+](=O)[O-])cc3)n2)no[n+]1[O-] | 105
CC1CCCCN1CCCNC(=O)c1ccc2c(c1)sc1nc(-c3ccc(F)cc3)cn12 (stereo unspecified) | 92.8
COc1cc(/C=C2\CN(C)C/C(=C\c3cc(CN4CCCC4)c(O)c(OC)c3)C2=O)cc(CN2CCCC2)c1O | 25.6

For the next question, use this compound.
growth reading for Cc1ccc(Nc2nc(N)c3ccccc3n2)cc1Cl : 27.4

----------
- System: TK-10 renal
- Experiment: NCI-60 one-dose screen, 48 h (100 = growth as untreated, 0 = no growth, -100 = all killed)
- Measurement Context: 10 µM unless noted
Compounds without any hit were thinned out: in the full panel of roughly 83,000, 20% have a hit.
This section presents compounds with their documented growth values.
Give the value in % but do not write % after it.

The following compounds have reported results that may help.
COC(=O)[C@H](NC(=O)C1(C)CCC[C@]2(C)[C@H]3C[C@H]4C(C(C)C)=C[C@]3(CC[C@@H]12)[C@@H]1C(=O)CCC(=O)[C@@H]14)C(C)C (stereo not given in full) | 127
O=c1oc2ccc(F)cc2c(=O)n1-c1ccc(Cl)cc1F | 5.92
COc1ccc(/C=C2\SC(=Nc3ccccc3)NC2=O)cc1 | -92.3

growth recorded for this compound, CCOC(=O)c1c(Cl)c2c(n1Cc1ccccc1)-c1oncc1CCC2 , is 98.9

get_value(item= CN(O)c1nc(N(C)O)nc(N2CCOCC2)n1 , readout=growth) returns 16.3

// sample NNC(=O)CNC(=O)Nc1n[nH]c(=S)s1 , its growth was 107

Recorded growth (compound COC(=O)C1=Nc2ccc(F)cc2/C1=C/c1sc(=S)[nH]c1O ): 56

Recorded result, COc1ccc(/C=C/C(=O)c2ccc(Nc3nc(NCCO)nc(Nc4ccc(Cl)cc4)n3)cc2)cc1 , growth: 96.2

----------
- System: MALME-3M melanoma
- Experiment: NCI-60 one-dose screen, 48 h (100 = growth as untreated, 0 = no growth, -100 = all killed)
- Measurement Context: 10 µM unless noted
The panel holds about 83,000 compounds, 20% with a hit somewhere; the sample as a whole holds those more often. Activity calls are given as the source filed them. Rule for the calls: active = growth percent below 10; inactive = the rest.
Metric: growth

Here is how some compounds turned out for growth.
O=C(Nc1ccccc1O)c1ccc(Oc2cccc(C(=O)Nc3ccccc3O)c2)cc1 | 13.6% (inactive)
O=c1c(-c2nc3ccccc3[nH]2)cc2ccccc2n1Cc1cn(Cc2ccc(F)cc2)nn1 | 12.8% (inactive)
O=S1(=O)CCN(Cc2ccccc2)CC1 | 112% (inactive)
O=C(c1nc2ccccc2[nH]1)C1[C@@H](c2cccc(O)c2)C2CC3CCCCC3N2[C@@]12C(=O)Nc1cc(Cl)ccc12 (stereo not given in full) | 32.1% (inactive)
COC(=O)c1ccc(NC(=O)CSc2nc3ccccc3c(=O)n2-c2ccccc2)cc1 | 109% (inactive)
COc1cc(CNC(=O)c2ccsc2Nc2ccnc(C(F)(F)F)c2)ccc1O | 64.4% (inactive)

Lab entry: MALME-3M melanoma assay, compound O=c1oc2ccc(Cl)cc2c(=O)n1-c1ccc(I)cc1F , growth = -29.2% (active)

Reported MALME-3M melanoma growth for item c1ccc2c(c1)oc1cc3sccc3nc12 was 102% (inactive)

Value sought: growth, system MALME-3M melanoma, item COc1ccc(OC)c(N(CCN2C(=O)c3ccccc3C2=O)C(=O)CCl)c1 . Result: -36.4% (active)

Bench note, MALME-3M melanoma: entry COc1cc2c(cc1OC)C(=O)C(CC1CCN(C(=O)Nc3ccc(C)cc3)CC1)C2 (stereo not given) , its growth = 91.1% (inactive)
